experiment: Serum biochemical factors after intraperitoneal injection; format: in vivo, mouse; settings: 50 μg/mouse ip, blood 48 h after the injection; mean ± standard deviation
No end group written: not given here.
MEASURED METRIC: Serum level of GOT
Include the unit after the number when you answer.

Qu. For the substance FFHHIFRGAVHVGKTIHRLVTG-NH2 [I9A-piscidin-1] , what Serum level of GOT is on record?
Ans. 8.96±1.12 U/L

Qu. Quick check: Serum level of GOT of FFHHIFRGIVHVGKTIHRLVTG-NH2 [Piscidin-1, reference compound] ?
Ans. 9.48±1.06 U/L

Qu. Look up Serum level of GOT for this substance: FFHHIFRGIVHVGKTKHRLVTG-NH2 [I16K-piscidin-1]
Ans. 8.88±0.86 U/L

Qu. Which Serum level of GOT reading was recorded for the substance FFHHIFRGIVHVGKTAHRLVTG-NH2 [I16A-piscidin-1] ?
Ans. 9.22±0.90 U/L

Qu. What measured Serum level of GOT goes with FFHHIFRGKVHVGKTIHRLVTG-NH2 [I9K-piscidin-1] ?
Ans. 9.27±0.78 U/L
